# assay.explanation: viability rescue of complex I mutant cybrids, primary screen, cell-based, galactose medium, ATP luminescence (AID 1645843);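 further: positive z means more ATP and so rescue of galactose-driven cybrid death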
# condition: complex I mutant cybrid cells, 72 h, stronger effect = higher value
Kindly return satisfied if reported z-score is no lower than 0.5; return not satisfied if it is lower.

molecule | class.label
C[C@]12CCC(=O)C=C1CC[C@@H]1[C@@H]2[C@@H](O)C[C@@]2(C)[C@H]1CC[C@]2(O)C(=O)COC(=O)CCC(=O)O | not satisfied

Prompt line: Could you verify whether the entry CN1CCCC(n2nc(Cc3ccc(Cl)cc3)c3ccccc3c2=O)CC1 (configuration not stated) shows z-score of no less than 0.5?
Response line: not satisfied

Prompt line: Could you verify whether the entry OC(CCN1CCCC1)(c1ccccc1)C1CCCCC1 (configuration not stated) shows z-score of no less than 0.5?
Response line: not satisfied

Prompt line: Could you verify whether the entry O=C1C(CCS(=O)c2ccccc2)C(=O)N(c2ccccc2)N1c1ccccc1 (configuration not stated) shows z-score of no less than 0.5?
Response line: not satisfied

Prompt line: Could you verify whether the entry `CCc1cc(C(N)=S)ccn1` shows z-score of no less than 0.5?
Response line: satisfied

Prompt line: Could you verify whether the entry `NCc1ccc(S(N)(=O)=O)cc1` shows z-score of no less than 0.5?
Response line: satisfied

----------
# assay.explanation: HCT116 colon cancer cell growth inhibition, primary screen, CellTiter-Glo luminescence, NPC library (AID 1117342)
# condition: at 20 µM (top of the series)
property.label: inhibition of viability (%)
A number alone suffices; assume %.

compound | unit.abbreviation | inhibition of viability
CCCc1nc2c(C)cc(-c3nc4ccccc4n3C)cc2n1Cc1ccc(-c2ccccc2C(=O)O)cc1 | % | 42
COc1ccc(OC)c(C(O)CNC(=O)CN)c1 (centres undefined) | % | -0.9
COc1ccc2nc(NC(=O)Nc3ccccc3)sc2c1 | % | 43
CC(COc1ccccc1)N(CCCl)Cc1ccccc1 (centres undefined) | % | -3.6
O=C(c1ccccc1)c1ccccc1 | % | 22.5

API: the following record is the query input.
Prompt line: Recorded inhibition of viability of CN(C)CCOC(c1ccccc1)c1ccc(Br)cc1 (centres undefined) , please.
Response line: 29.9

----------
# assay.explanation: CellTiter-Glo luminescent readout of SW480 viability loss, NPC library primary (AID 1117343)
# condition: CellTiter-Glo luminescence; at 20 µM (top of the series)
Activity calls are given as the source filed them.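 How the source made its calls: active means compounds that lower viability of the colon cancer cells in the luminescence readout, with no numeric limit stated; inactive means the rest.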
Parameter call: string, one of active, inactive

Would you please look over these solved cases?
compound | class.label
Cc1ccc(-c2ccccc2C#N)cc1 | inactive
CCCN(CCC)C(=O)C(CCC(=O)OCCCN1CCN(CCOC(=O)Cc2c(C)n(C(=O)c3ccc(Cl)cc3)c3ccc(OC)cc23)CC1)NC(=O)c1ccccc1 (stereo unspecified) | active
CC[C@H](C)C(=O)O[C@H]1C[C@@H](C)C=C2C=C[C@H](C)[C@H](CC[C@@H]3C[C@@H](O)CC(=O)O3)[C@H]21 | active
CC(=O)CCCCn1c(=O)c2c(ncn2C)n(C)c1=O | active
CCN(CC)CCOC(=O)C1(C2CCCCC2)CCCCC1 | active

Prompt line: Please let me know the test result on file for `Cc1cc(CCCOc2c(C)cc(-c3noc(C(F)(F)F)n3)cc2C)on1` .
Response line: inactive

Prompt line: Please let me know the test result on file for CN(CC1(C)CCCO1)S(=O)(=O)c1ccc(Cl)c(S(N)(=O)=O)c1 (stereo unspecified) .
Response line: inactive

Prompt line: Please let me know the test result on file for `Nc1c2c(nc3ccccc13)CCCC2` .
Response line: inactive

Prompt line: Please let me know the test result on file for `CN(C)CCOC(c1ccccc1)c1ccccc1` .
Response line: active

----------
# assay.explanation: growth inhibition of GSK3B-pretreated HCT116 cells – cell-based, CellTiter-Glo, 0.2 to 20 µM (AID 1117336)
# condition: HCT116 viability after GSK3B inhibitor, at 20 µM, stronger effect = higher value
Rule for this label: 1 means viability decrease is less than 60%; 0 means viability decrease is at least 60%.

compound | class.label
CC1=C(/C=C/C(C)=C/C=C/C(C)=C/C(=O)O)C(C)(C)CCC1 | 0
CCN(CC)CCOC(=O)C1(C2CCCCC2)CCCCC1 | 1
Cc1onc(-c2c(F)cccc2Cl)c1C(=O)Cl | 1
N[C@H]1CN(c2c(F)cc3c(=O)c(C(=O)O)cn(C4C[C@@H]4F)c3c2Cl)CC12CC2 (stereo partly drawn) | 1
CN(C)[C@@H]1C(=O)C(C(N)=O)=C(O)[C@@]2(O)C(=O)C3=C(O)c4c(O)cccc4C[C@H]3C[C@@H]12 | 0

Prompt line: Does the reported viability decrease of the following compound sit strictly below 60%? COc1ccccc1OCC1CNC(=O)O1 (stereo not drawn)
Response line: 1

Prompt line: Does the reported viability decrease of the following compound sit strictly below 60%? `C[C@H]1O[C@@H](O[C@H]2CC[C@@]3(C)[C@H](CC[C@@H]4[C@@H]3C[C@@H](O)[C@]3(C)[C@@H](C5=CC(=O)OC5)CC[C@]43O)C2)C[C@H](O)[C@@H]1O[C@H]1C[C@H](O)[C@H](O[C@H]2C[C@H](O)[C@H](O[C@@H]3O[C@H](CO)[C@@H](O)[C@H](O)[C@H]3O)[C@@H](C)O2)[C@@H](C)O1`
Response line: 0

Prompt line: Does the reported viability decrease of the following compound sit strictly below 60%? `CCCOC(=O)c1cc(O)c(O)c(O)c1`
Response line: 1

----------
# assay.explanation: growth inhibition of DIPG glioma cells, dose response, cell-based, SU-DIPG-XVII, MIPE5.0, CellTiter-Glo, qHTS (AID 1347060);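 on AC50: cells exposed to compound for 48 hours before viability readout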
# condition: SU-DIPG-XVII viability, CellTiter-Glo ATP luminescence
Results filed as inconclusive are left out. Active and inactive are the calls of the source. No cut-off is given here; in the data, nearly all actives have AC50 up to about 26 µM.
Parameter call: string, one of active, inactive

Would you please look over these solved cases?
compound | class.label
CCC(=O)O[C@]1(C(=O)CCl)[C@@H](C)C[C@H]2[C@@H]3CCC4=CC(=O)C=C[C@]4(C)[C@@]3(F)[C@@H](O)C[C@@]21C | inactive
NCCc1ccc(O)c(O)c1 | inactive
CCN(CC)C(=S)SSC(=S)N(CC)CC | active
Cc1ccc(C)c(OCCCC(C)(C)C(=O)O)c1 | inactive
CC(C)NCC(O)c1ccc(O)c(O)c1 (stereo not drawn) | inactive
NC(N)=NC(=O)c1nc(Cl)c(N)nc1N | inactive
c1ccc([C@H]2CN3CCSC3=N2)cc1 | inactive
C[C@]12CCC(=O)C=C1CC[C@@H]1[C@@H]2[C@@H](O)C[C@@]2(C)[C@H]1CC[C@]2(O)C(=O)CO | inactive
Nc1ncn([C@@H]2O[C@H](CO)[C@@H](O)[C@H]2O)c(=O)n1 | active
OCCN1CCN(CCCN2c3ccccc3Sc3ccc(C(F)(F)F)cc32)CC1 | active

Prompt line: Please let me know the test result on file for `CCOC(=O)[C@H](CCc1ccccc1)N[C@H]1CCc2ccccc2N(CC(=O)O)C1=O` .
Response line: inactive

Prompt line: Please let me know the test result on file for CCN(CCO)CCCC(C)Nc1ccnc2cc(Cl)ccc12 (stereo not drawn) .
Response line: inactive

Prompt line: Please let me know the test result on file for CN(CCOc1ccc(CC2SC(=O)NC2=O)cc1)c1ccccn1 (stereo not drawn) .
Response line: inactive

Prompt line: Please let me know the test result on file for CC(COc1ccccc1)N(CCCl)Cc1ccccc1 (stereo not drawn) .
Response line: inactive

Prompt line: Please let me know the test result on file for `O=C(O)c1cccnc1` .
Response line: inactive

Prompt line: Please let me know the test result on file for `CC(C)C(=O)Nc1ccc([N+](=O)[O-])c(C(F)(F)F)c1` .
Response line: inactive

Prompt line: Please let me know the test result on file for `O=C1c2c(O)ccc(O)c2C(=O)c2c(NCCNCCO)ccc(NCCNCCO)c21` .
Response line: active

Prompt line: Please let me know the test result on file for `CCn1cc(C(=O)O)c(=O)c2cc(F)c(N3CCN(C)CC3)cc21` .
Response line: inactive

Prompt line: Please let me know the test result on file for `CCCCNc1cc(C(=O)O)cc(S(N)(=O)=O)c1Oc1ccccc1` .
Response line: inactive

Prompt line: Please let me know the test result on file for COc1c(N2CCNC(C)C2)c(F)cc2c(=O)c(C(=O)O)cn(C3CC3)c12 (stereo not drawn) .
Response line: inactive

Prompt line: Please let me know the test result on file for `COc1cc2ncn(-c3cc(OCc4ccccc4C(F)(F)F)c(C(N)=O)s3)c2cc1OC` .
Response line: active

Prompt line: Please let me know the test result on file for `N[C@@H]1CONC1=O` .
Response line: inactive

Prompt line: Please let me know the test result on file for `OC(Cn1cncn1)(Cn1cncn1)c1ccc(F)cc1F` .
Response line: inactive

----------
# assay.explanation: modulators of glucocorticoid suppression of NF-kB, cell-based, luciferase, IL-1B stimulus, dexamethasone (AID 624486)
# condition: NF-kB luciferase reporter, IL-1B + dexamethasone, luminescence; measured here: IL-1B alone, no Dex
Kindly return Yes if reported z-score is no lower than 0.8; return No if it is lower.

Would you please look over these solved cases?
molecule | class.label
CNC(C#Cc1c(F)ccc2c1C(=Cc1[nH]ccc1OC)C(=O)N2)CO (stereo not given) | Yes
CN1CCN(CCc2cccc(C(=O)c3cnn(-c4ccc(F)cc4)c3N)c2)CC1 | Yes
CC1=C(C(=O)Nc2ccc3[nH]ncc3c2)C(c2ccc(F)cc2)N=C(c2ccc(C(F)(F)F)nc2)N1 (stereo not given) | No
NC(=O)c1cc(-c2ccncc2)cc(-c2ccccc2)c1N | No

Pending molecule:
Prompt line: Could you verify whether the entry `Nc1c(C(=O)c2ccc(-c3cccnc3)cc2)cnn1-c1ccc(F)cc1` shows z-score of no less than 0.8?
Response line: Yes
